Assay Notes: Toxicity against brine shrimp
Type: organism-based
Measurement Conditions: artemia, in vivo

Compound	LC50 (µg/mL)
C/C(Cl)=C/C=C/C(Cl)=C/C=C/C=C/C=C/C=C/C(O)=C1\C(=O)[C@H](CC(N)=O)N([C@@H]2OC[C@@H](O)[C@H](O)[C@H]2O[C@@H]2O[C@H](CO)[C@@H](O[C@@H]3O[C@H](C)[C@@H](O)[C@@H]3O)[C@@H]2O)C1=O [AURANTOSIDE C]	50

The origin of these recorded values is ChEMBL document CHEMBL1158002.
